Cited source: ChEMBL document CHEMBL4689842

System: U2OS
Experiment summary: Multiplex assay against U2OS
Format: toxicity, cell-based
Stated conditions: human, 24 h, 1 µM, compound concentration 1 uM, replicate 1
Quantity: Total Cell Count

Completed entries (count: 5):
                                   molecule  target_under_test  observed_measurement
0  C=CC(=O)Nc1cccc(Oc2nc(Nc3ccc(N4CCN(C)CC4)cc3OC)ncc2Cl)c1               U2OS                   160
1  Cl.O=C(O)c1cc(-c2ccc(C3CCNCC3)cc2)c2ccc(-c3ccc(C(F)(F)F)cc3)cc2c1               U2OS                   249
2  O=c1cc(N2CCOCC2)oc2c(-c3cccc4c3sc3ccccc34)cccc12               U2OS                   118
3  O=c1[nH]c2ccccc2n1C1CCN(Cc2ccc(-c3[nH]c4cc5ncnc5cc4nc3-c3ccccc3)cc2)CC1               U2OS                   211
4  CNC(=O)c1ccc(Nc2ncc(C(F)(F)F)c(NCc3nccnc3N(C)S(C)(=O)=O)n2)cc1               U2OS                   259

# ---- query molecule ----
Task item: Give the observed Total Cell Count of Cc1c[nH]c2nccc(Oc3c(F)cc(Nc4cc(Cl)nc(N)n4)cc3F)c12 for U2OS.
Reply: 226

---

Test system: Fibroblast
Experiment summary: Multiplex assay against human fibroblast
Format: toxicity, cell-based
Stated conditions: 24 h, 1 µM, compound concentration 1 uM, replicate 2
Quantity: Population Pyknosed Nuclei (%)
Response body: numeric value in %, unit text excluded.

Completed entries (count: 5):
                                   compound                        quantity  u  observed_measurement
0  CNC(=O)Nc1ccc2c(c1)[C@@]1(CC2)OC(=O)N(CC(=O)N(Cc2ccc(F)cc2)[C@@H](C)C(F)(F)F)C1=O  Population Pyknosed Nuclei (%)  %                    13
1  CC(C)Oc1ccccc1C(=O)Nc1ccccc1C(=O)Nc1cccc(S(=O)(=O)C(F)(F)F)c1  Population Pyknosed Nuclei (%)  %                    11
2  C=CC(=O)Nc1cccc(Sc2nc(Nc3ccc(N4CCN(C)CC4)cc3)ncc2Cl)c1  Population Pyknosed Nuclei (%)  %                    25
3  CNC(=O)Nc1ccc(-c2nc(N3CC4CCC(C3)O4)c3cnn(C4CCC5(CC4)OCCO5)c3n2)cc1  Population Pyknosed Nuclei (%)  %                    16
4  C[C@]1(O)C[C@@H](c2nc(-c3ccc4ccc(-c5ccccc5)nc4c3)c3c(N)nccn32)C1  Population Pyknosed Nuclei (%)  %                     3

Task item: Look up Population Pyknosed Nuclei (%) of CC(C)c1noc(N2CCC(COc3ccc(-c4ccc(S(C)(=O)=O)cc4)nc3)CC2)n1 and report it.
Reply: 2

Task item: Look up Population Pyknosed Nuclei (%) of CC(C)NC(=O)N1CC[C@H](NC2=Nc3cc(F)ccc3N(CC(F)F)c3ccc(Cl)cc32)C1 and report it.
Reply: 5

Task item: Look up Population Pyknosed Nuclei (%) of CCc1ccc(OCc2ccccc2C(=O)Nc2ccc3nc(C)cc(N)c3c2)cc1.Cl and report it.
Reply: 46

Task item: Look up Population Pyknosed Nuclei (%) of CCc1nn(CCCN2CCN(c3cccc(Cl)c3)CC2)c(=O)n1CCOc1ccccc1.Cl [NEFAZODONE HYDROCHLORIDE] and report it.
Reply: 5

Task item: Look up Population Pyknosed Nuclei (%) of CC1=C(C(=O)Nc2cc3cn[nH]c3cc2F)C(c2ccc(C(F)(F)F)cc2)CC(=O)N1 (configuration not stated) and report it.
Reply: 6

Task item: Look up Population Pyknosed Nuclei (%) of O=c1[nH]c2ccccc2n1C1CCN(Cc2ccc(-c3[nH]c4cc5ncnc5cc4nc3-c3ccccc3)cc2)CC1 and report it.
Reply: 12

Task item: Look up Population Pyknosed Nuclei (%) of Cc1cccc(CN2CCN(C(c3ccccc3)c3ccc(Cl)cc3)CC2)c1.Cl.Cl (configuration not stated) and report it.
Reply: 8

Task item: Look up Population Pyknosed Nuclei (%) of COc1cc2ncn(-c3cc(OCc4ccccc4C(F)(F)F)c(C(N)=O)s3)c2cc1OC [GW843682X] and report it.
Reply: 14

Task item: Look up Population Pyknosed Nuclei (%) of CN1CCN(Cc2ccc(Nc3ncc(Cl)c(Nc4ccccc4S(=O)(=O)N(C)C)n3)cc2)CC1 and report it.
Reply: 4
